Each entry below carries its reported TGI.
- System: A498 renal
- Protocol Description: NCI tumour cell line growth inhibition, 48 h
Metric Name: TGI

>>> result("COC(C/C(=C/CO[Si](C(C)C)(C(C)C)C(C)C)C(=O)N(COCC[Si](C)(C)C)c1ccccc1I)OC")
"> 100 µM"
>>> result("COC(=O)CCC(NC(=S)N/N=C(\\C)c1ccc[nH]1)C(=O)OC (configuration not stated)")
"> 100 µM"
>>> result("Fc1ccc(-c2ncn(C3CCNCC3)c2-c2ccnc(Oc3ccc4c(c3)OCO4)n2)cc1")
"> 25 µM"
>>> result("Cc1c(CNc2ccc(C(=O)NC(CCCNC(=O)c3ccccc3C(=O)O)C(=O)O)cc2)cnc2nc(N)nc(N)c12 (configuration not stated)")
"> 100 µM"
>>> result("Cc1c(C(=O)C/C(=N/NC(=O)c2ccccc2)C(=O)Nc2ccc(Cl)cc2)[n+](=O)c2ccccc2n1[O-]")
"> 100 µM"
>>> result("C=C(C(=O)O[C@H]1C/C(C)=C/CC/C(CO)=C/[C@H]2C(=O)OC(=C)[C@H]12)C(O)CO (some centres not stated)")
"32.7 µM"
>>> result("Cc1c(C(=O)c2ccc(N)c3ccccc23)c2ccccc2n1CCN1CCOCC1")
"81.8 µM"

* * *

- Test system: M14 melanoma
- Protocol Description: NCI tumour cell line growth inhibition, 48 h
Metric Name: TGI (µM)

>>> readout_number("CCC[CH2][Sn]([CH2]CCC)([O]C(=O)c1cc(OC)c(OC)cc1OC)[O][Sn]([CH2]CCC)([CH2]CCC)[O]C(=O)c1cc(OC)c(OC)cc1OC")
0.797
>>> readout_number("CC1=NN(c2cccc(Cl)c2)C2(C1=Cc1ccc(O)cc1)C(Cl)C(=O)N2c1nc2ccccc2s1 (centres undefined)")
58.7
>>> readout_number("CCCCc1ccc(Nc2ncc3ncn(COCCO)c3n2)cc1")
53
>>> readout_number("COc1cc(/C=C/c2ccc(C)cc2)cc(OC)c1OC")
15.3
>>> readout_number("CC1=CC2C(C(O)CC3(C)C2CC(C)C32OCOC23COCO3)C2(C)C/C(=C/O)C(=O)C=C12 (centres undefined)")
3.51
>>> readout_number("CCOC(=O)/C(C(N)=O)=C(\\O)C(=O)/C(Br)=C(\\O)c1ccccc1")
29.3
>>> readout_number("CC(C)(C)C1CCC2c3c([nH]c4ccccc34)C3C(=O)N(c4ccc(C#N)cc4)C(=O)C3C2C1 (centres undefined)")
72.6
>>> readout_number("CN(Cc1cnc2nc(N)nc(N)c2n1)c1ccc(C(=O)NC23CC4CC(CC(C4)C2)C3)cc1")
18.4
>>> readout_number("N#Cc1nc(-c2ccc(F)cc2)oc1S(=O)(=O)N1CCCCC1")
3.87

* * *

Each entry below carries its reported GI50.
- Tested on: LOX IMVI melanoma
- Protocol Description: NCI tumour cell line growth inhibition, 48 h
Metric Name: GI50

>>> result("Oc1c(C(Nc2ccccc2Br)c2ccccc2)ccc2cccnc12 (stereo not given)")
"1910 nM"
>>> result("O=C1CCc2c(sc3[nH]c(=S)n(-c4cc(C(F)(F)F)cc(C(F)(F)F)c4)c(=O)c23)C1")
"392 nM"
>>> result("Cc1ccc(S(=O)(=O)Oc2ccc3c4c(c(=O)oc3c2)CCCCCC4)cc1")
"> 100000 nM"
>>> result("Fc1ccc(-c2ncn(C3CCNCC3)c2-c2ccnc(Oc3ccc4c(c3)OCO4)n2)cc1")
"12300 nM"
>>> result("Nc1ccn(C2CC(F)C(CO)O2)c(=O)n1 (stereo not given)")
"> 100000 nM"
>>> result("CCC(=O)N1C/C(=C/c2ccc(Cl)cc2)C(=O)/C(=C/c2ccc(Cl)cc2)C1")
"161 nM"
>>> result("CC(C)(C)c1ccc(C(O)CCCN2CCC(C(O)(c3ccccc3)c3ccccc3)CC2)cc1 (stereo not given)")
"1500 nM"
>>> result("CN1CCN(Cc2c[nH]c3c2C(=O)c2c(c(O)c4ccccc4c2O)C3=O)CC1")
"1920 nM"
>>> result("COc1ccc2c(c1)[n+](=O)c(C(=O)c1cccs1)c(C(F)(F)F)n2[O-]")
"2090 nM"
>>> result("N#Cc1nc(-c2ccc(F)cc2)oc1S(=O)(=O)N1CCCCC1")
"1190 nM"

* * *

- Test system: LOX IMVI melanoma
- Protocol Description: NCI tumour cell line growth inhibition, 48 h
Metric Name: TGI (µM)

>>> readout_number("O=C1NC(=O)c2ccccc2/C1=C/c1ccc2c(c1)OCO2")
46.4
>>> readout_number("COc1ccc2c(c1)nc(NNC(=O)c1cnccn1)c1cccn12")
1.57
>>> readout_number("COc1ccc(/C=C(/c2ccccc2)[N+](=O)[O-])c(OC)c1")
1.63
>>> readout_number("O=c1c2cc(C(F)(F)F)ccc2sc2c(NCCCNCCO)nc3ccccc3c12")
2.7

* * *

- Tested on: T-47D breast
- Protocol Description: NCI tumour cell line growth inhibition, 48 h
Metric Name: TGI (µM)

>>> readout_number("Cc1ccc2nc3ccccc3c(NCc3ccc(Cl)cc3)c2c1")
19.5
>>> readout_number("COC(=O)c1cc(-c2ccccc2)[nH]c1N/N=C/c1c(Cl)cccc1Cl")
7.36
>>> readout_number("COc1ccc(/C=C(/c2ccccc2)[N+](=O)[O-])c(OC)c1")
4.21
>>> readout_number("COC(=O)c1c2c(c(C)[n+]([O-])c1C)C(=O)C=C(NCc1ccccc1)C2=O")
1.59
>>> readout_number("COc1cc(/C=C/c2ccc(C)cc2)cc(OC)c1OC")
20.6
>>> readout_number("CNC(=O)NCC1OC(n2cnc3c(NC(=O)Nc4ccccc4)ncnc32)C(O[Si](C)(C)C(C)(C)C)C1O[Si](C)(C)C(C)(C)C (centres undefined)")
10.3
>>> readout_number("C=C1C(=O)O[C@H]2[C@H]1CC/C(COC(=O)CCCCCC(=O)OC/C1=C/CC[C@@]3(C)O[C@H]3[C@H]3OC(=O)C(=C)[C@@H]3CC1)=C\\CC[C@@]1(C)O[C@@H]21")
5.74
>>> readout_number("CCCCCCCCCCCC1=NC(C)(C)CN1C(C)(C)CO")
5.31
>>> readout_number("O=C(CCN1CCCC1)Nc1ccc2c(NCc3ccccc3)c3ccccc3nc2c1")
2.89

* * *

- System: CAKI-1 renal
- Protocol Description: NCI tumour cell line growth inhibition, 48 h
*1 amine or outer side, *2 acyl side, *3 side chain or, on linkers, in order; H or OH if unused. Where a SMILES comes first, the peptide text is derived from it. Bridges are numbered along the chain shown (N, C = ends). Roman numbers before positions name the chains, in order. [ ]: non-standard residue; d: D form. Actinocin(9to1) = Cc1c2oc3c(C)ccc(C(=O)[*:1])c3nc-2c(C(=O)[*:2])c(N)c1=O; NMeH = CN[CH](Cc1c[nH]cn1)C(=O)O; Sar = CNCC(=O)O
Each entry below carries its reported TGI.
Metric Name: TGI

>>> result("CC1C(NNC(N)=O)Oc2cc3c(cc2C1c1ccccc1O)OCO3 (configuration not stated)")
"> 100 µM"
>>> result("NC(=N\\N=C/c1ccc(O)cc1)/C(N)=N\\N=C/c1ccc(O)cc1")
"> 100 µM"
>>> result("Cc1ccc(S(=O)(=O)N2C[C@@H]3CC[C@]4(CO[Si](C)(C)C(C)(C)C)N[C@@H](c5ccccc5)[C@H]2[C@H]34)cc1")
"> 100 µM"
>>> result("C/C(=C\\c1ccn(-c2ccccc2N)n1)[C@@H]1C[C@@H]2O[C@]2(C)CCC[C@H](C)[C@H](O)[C@@H](C)C(=O)C(C)(C)[C@@H](O)CC(=O)O1")
"> 50 µM"
>>> result("CCO/C=C1\\N=C(c2ccc(Cl)c(Cl)c2)OC1=O")
"> 100 µM"
>>> result("CCCCCCCCCCCC1=NC(C)(C)CN1C(C)(C)CO")
"4.37 µM"
>>> result("COC(=O)C1=C(OC(=O)/C(=C/c2ccccc2)c2ccc(OC)cc2)C(C(=O)OC)[C@@]2(O)[C@@H](C(=O)OC)[C@H](C)C[C@@H]1[C@@H]2C(=O)OC (some centres not stated)")
"> 100 µM"
>>> result("CCOc1ccc2c(-c3ccnc(Nc4cc(OC)cc(C(F)(F)F)c4)n3)cnn2n1")
"> 25 µM"
>>> result("COc1cccc(N=N/C(=N/NC(=O)c2ccc(C)cc2)c2ccc(N(CCC#N)CCC#N)cc2OC)c1")
"> 100 µM"
>>> result("Cn1cccc1-c1ccc(-c2ccc(CO)[se]2)[se]1")
"44.5 µM"
>>> result("Cc1c2oc3c(C)ccc(C(=O)NC4C(=O)NC(C(C)C)C(=O)N5CCCC5C(=O)N(C)CC(=O)N(C)C(Cc5cnc[nH]5)C(=O)OC4C)c3nc-2c(C(=O)NC2C(=O)NC(C(C)C)C(=O)N3CCCC3C(=O)N(C)CC(=O)N(C)C(Cc3cnc[nH]3)C(=O)OC2C)c(N)c1=O (configuration not stated) (I: TVP[Sar][NMeH] / II: TVP[Sar][NMeH]; ester I:1-I:C, II:1-II:C; linker I:N-II:N via Actinocin(9to1); configuration not given here)")
"> 100 µM"
>>> result("CC(C)/C=C1\\CCC(CN2CCOCC2)C1=O (configuration not stated)")
"8.93 µM"
>>> result("Cc1cc(S(=O)(=O)Nc2nc3ncccc3[nH]2)c(S)cc1Cl")
"> 100 µM"
>>> result("N#CC1(C#N)C(C#N)(C#N)C1(C#N)C(N)=O")
"> 100 µM"
>>> result("CN(Cc1cnc2nc(N)nc(N)c2n1)c1ccc(C(=O)NC23CC4CC(CC(C4)C2)C3)cc1")
"27.8 µM"
>>> result("ClC(Cl)=C(Cl)C1(Cl)CC1COCc1ccccc1 (configuration not stated)")
"> 100 µM"
>>> result("CSC(=S)Nc1cc(C)cc(C)n1")
"> 31.6 µM"
